# system.under.test: T1, mouse P2X7 (mouse, UniProt Q9Z1M0 1-595)
# T1 construct: on transfected CHO or Hek293 cells, or endogenous on Yac-1 cells; also called mP2X7; mouse purinoceptor P2X7
# T1 sequence: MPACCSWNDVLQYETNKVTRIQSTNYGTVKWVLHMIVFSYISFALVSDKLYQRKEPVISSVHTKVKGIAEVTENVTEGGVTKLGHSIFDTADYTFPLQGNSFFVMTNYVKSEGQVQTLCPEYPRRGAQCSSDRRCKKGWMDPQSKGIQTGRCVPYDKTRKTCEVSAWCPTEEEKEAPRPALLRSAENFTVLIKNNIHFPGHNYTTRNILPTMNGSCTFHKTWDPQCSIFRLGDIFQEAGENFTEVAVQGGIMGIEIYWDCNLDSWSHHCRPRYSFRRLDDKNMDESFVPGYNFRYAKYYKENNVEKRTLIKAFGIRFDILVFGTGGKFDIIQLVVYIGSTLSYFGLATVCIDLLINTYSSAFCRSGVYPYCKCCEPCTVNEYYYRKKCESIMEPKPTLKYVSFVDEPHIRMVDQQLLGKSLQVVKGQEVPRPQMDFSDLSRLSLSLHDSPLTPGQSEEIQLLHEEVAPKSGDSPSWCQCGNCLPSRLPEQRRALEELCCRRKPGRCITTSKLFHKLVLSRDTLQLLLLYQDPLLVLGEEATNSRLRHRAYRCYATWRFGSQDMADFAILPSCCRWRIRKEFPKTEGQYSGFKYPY
# test.name: flow cytometry, periplasmic extract pre-incubated with anti-myc-FITC, on mP2X7-Hek293 cells;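 also: periplasmic extract diluted 10-fold and premixed 45 min at 4 °C with FITC anti-myc antibody, giving pseudo-bivalent Nanobodies, before binding to the cells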
readout.label: MFI FACS (pre-Myc incubation) (MFI)
The reply should be a number in MFI, with the unit left off.

Which value of MFI FACS (pre-Myc incubation) has been reported for P2X7PMP1A8 (VHH, family 2; on phage or c-myc/His6-tagged in assays) VHH: EVQLVESGGGLVQTGGSLRLSCAASGFTLDDYAIAWFRQAPGKEREGVSILSSIGKTFYADSVKDRFSITADGAKTTVFLQMNSLKPGDTAIYYCVAGHFVYNDGAISLNTARGSGFWGQGAQVTVSS in the records?
18

Which value of MFI FACS (pre-Myc incubation) has been reported for P2X7PMP20B10 (VHH, family 2; on phage or c-myc/His6-tagged in assays) VHH: EVQLVESGGGLVQTGGSLRLSCAASGFTLDDYAIAWFRQAPGKEREGVSILSSIGKTFYADSVKDRFSITADGAKTTVFLQMNSLKPEDTAIYYCVAGHFVYNDGAISLNTARGSGFWGQGTQVTVSS in the records?
85

Which value of MFI FACS (pre-Myc incubation) has been reported for P2X7PMP8H5 (VHH, family 5, 2; on phage or c-myc/His6-tagged in assays) VHH: EMQLVESGGGLVQAGGSLRLSCAASGNFFRVNTMAWYRQAPGKQRELVADITRGDRTNYADTVNGRFTISRDNVRNTVYLQMNGLKPEDTAAYYCYARIELGVLEPRDYWGQGTQVTVSS in the records?
24

Which value of MFI FACS (pre-Myc incubation) has been reported for P2X7PMP8G12 (VHH, family 5, 3; on phage or c-myc/His6-tagged in assays; also called 8012) VHH: KVQLVESGGGLVQAGGSLRLSCAASGSFFRVNNMAWYRQGPGKQRELVADITRGDRTNYADSVNGRFTISRDNVRNTVYLQMNGLKPEDTAVYYCYATIELGVLEPRDYWGQGTQVTVSS in the records?
166

Which value of MFI FACS (pre-Myc incubation) has been reported for P2X7PMP19C2 (VHH, family 15; on phage or c-myc/His6-tagged in assays) VHH: EVQLVKSGGGLVQAGGSLRLSCAASPGTFSSFNMGWFRQTPGKEREFVAATSWSDISTYYADSVKGRFTISRDNAKNTVTLEMNSLKPEDTAVYYCAAGYYRGGYLGYRLTLEGSYDVWGQGTQVTVSS in the records?
64

Which value of MFI FACS (pre-Myc incubation) has been reported for P2X7PMP1C9 (VHH, family 2; on phage or c-myc/His6-tagged in assays) VHH: EVQLVESGGGLVQTGGSLRLSCAASGFTLDDYAIAWFRQAPGKEREGVSILSSIGKTFYADSVKDRFSITADGAKTTVFLQMNSLKPEDTAIYYCVAGHFVYNDGAISLNTARGSGFWGQGAQVTVSS in the records?
19

Which value of MFI FACS (pre-Myc incubation) has been reported for P2X7PMP16D9 (VHH, family 15; on phage or c-myc/His6-tagged in assays) VHH: EVQLVESGGGLVQAGGSLRLSCAASPGTFSSFNMGWFRQTPGKEREFVAATSWSDISTYYADSVKGRFTISRDNAKNTVTLEMNSLKPEDTAVYYCAAGYYRGGYLGYRLTLEGSYDVWGQGTQVTVSS in the records?
53

Which value of MFI FACS (pre-Myc incubation) has been reported for P2X7PMP18A7 (VHH, family 25; on phage or c-myc/His6-tagged in assays) VHH: EVQLVESGGDLVQPGGSLRLSCVASGFALEEHAIGWFRQAPGKEREGVSLSSYVGAVYYATSVKGRFTISRDNAKNTVYLQMNSLKPEDTAVYYCARGHFTYDDGRISIRSVDHWGKGTLVTVSS in the records?
69

Which value of MFI FACS (pre-Myc incubation) has been reported for P2X7PMP6A11 (VHH, family 5, 2; on phage or c-myc/His6-tagged in assays) VHH: EVQLVESGGGLVQAGGSLRLSCAASGNFFRVNTMAWYRQAPGKQRELVADITRGDRTNYADTVNGRFTISRDNVRNTVYLQMNGLKPEDTAAYYCYARIELGVLEPRDYWGQGTQVTVSS in the records?
53

Which value of MFI FACS (pre-Myc incubation) has been reported for P2X7PMP1G6 (VHH, family 15; on phage or c-myc/His6-tagged in assays) VHH: EVQLVESGGGLVQAGGSLRLSCAASPGAFSSFNMGWFRQTPGKEREFVAATSWSDISTYYADSVKGRFTISRDNAKNTVTLEMNSLKPEDTAVYYCAAGYYRGGYLGYRLTLEGSYDVWGQGTQVTVSS in the records?
11
